ASSAY_TARGET: T1, recombinant purified FRα (ECL assay calibrator) (human, UniProt P15328 25-234)
T1 construct: Calibrator of the ECL sandwich assays; also called FRα calibrator; FRα standard
T1 sequence (P15328 25-234 limits assumed): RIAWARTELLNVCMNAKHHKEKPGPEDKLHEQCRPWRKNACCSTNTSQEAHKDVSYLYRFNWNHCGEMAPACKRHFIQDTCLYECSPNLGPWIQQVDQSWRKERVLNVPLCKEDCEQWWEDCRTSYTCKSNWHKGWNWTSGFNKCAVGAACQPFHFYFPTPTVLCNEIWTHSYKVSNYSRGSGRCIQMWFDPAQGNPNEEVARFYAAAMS
EXPERIMENT_DESCRIPTION: ECL sandwich, FRα calibrator; capture 19D4.B7; binder = detection Ab
QUANTITY: Specific signal at 500 pg/mL
// return just the number, without any unit appended

Completed entries (count: 2):
[
  {
    "BINDER": "Monoclonal antibody 1D2.D8.G10 (antibody, mouse IgG1, V domains shown, Murine IgG1 kappa from hybridoma; also called 1D2.D8.G0; ATCC PTA-123098) VH: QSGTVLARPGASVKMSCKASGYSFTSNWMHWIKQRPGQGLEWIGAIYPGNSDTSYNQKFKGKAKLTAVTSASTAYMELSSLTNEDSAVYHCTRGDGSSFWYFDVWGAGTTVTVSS VL: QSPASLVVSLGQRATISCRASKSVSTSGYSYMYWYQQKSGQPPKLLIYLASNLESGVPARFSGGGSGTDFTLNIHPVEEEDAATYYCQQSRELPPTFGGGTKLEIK",
    "Specific signal at 500 pg/mL": 21800
  },
  {
    "BINDER": "Monoclonal antibody 1A8.G11.E7 (antibody, mouse IgG1, V domains shown, Murine IgG1 kappa from hybridoma; also called ATCC PTA-123100) VH: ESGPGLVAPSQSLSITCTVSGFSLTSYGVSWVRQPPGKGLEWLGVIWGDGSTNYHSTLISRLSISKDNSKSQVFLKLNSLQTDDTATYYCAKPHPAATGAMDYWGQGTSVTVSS VL: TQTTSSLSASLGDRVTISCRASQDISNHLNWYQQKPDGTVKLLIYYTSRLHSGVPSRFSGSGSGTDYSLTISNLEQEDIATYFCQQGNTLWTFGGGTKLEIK",
    "Specific signal at 500 pg/mL": 41400
  }
]

Now for the binder whose Specific signal at 500 pg/mL we want.
Prompt: Please look up its Specific signal at 500 pg/mL: Monoclonal antibody 6A2.G7 (antibody, mouse IgG1, V domains shown, Murine IgG1 kappa from hybridoma; also called ATCC PTA-123093) VH: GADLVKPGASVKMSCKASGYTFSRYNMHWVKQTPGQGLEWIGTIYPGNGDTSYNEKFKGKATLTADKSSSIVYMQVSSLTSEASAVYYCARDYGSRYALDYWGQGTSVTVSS VL: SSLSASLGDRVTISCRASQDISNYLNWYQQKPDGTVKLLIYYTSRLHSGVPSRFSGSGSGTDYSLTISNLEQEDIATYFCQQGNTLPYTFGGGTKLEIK
Response: 10800
